From: patent US11014911B2

target-desc: CDK2/Cyclin E1 full length (Homo sapiens (Human), UniProt P24941)
assay-details: CDK2/Cyclin E1 full length mobility shift assay
measured-attribute: Ki (nM)

>>> observed("C[C@H]1[C@H](C#N)CN1C(=O)O[C@@H]1CC[C@H](c2cc(NC(=O)Cc3ccccc3)n[nH]2)C1 (single isomer, unassigned) [Example 161]")
0.15
>>> observed("COc1ccc(CC(=O)Nc2cc([C@H]3CC[C@@H](OC(=O)NC(C)(C)C)C3)[nH]n2)cn1")
0.19
>>> observed("C[C@H]1COCCN1C(=O)O[C@@H]1CC[C@H](c2cc(NC(=O)Cc3cc(F)cc(F)c3)n[nH]2)C1")
0.33
>>> observed("Cc1cnc(CC(=O)Nc2cc([C@H]3CC[C@@H](OC(=O)N[C@H](C)C4CC4)C3)[nH]n2)cn1")
1.43
>>> observed("CCN(C)C(=O)O[C@@H]1CC[C@H](c2cc(NC(=O)Cc3ccc(F)cc3)n[nH]2)C1")
1.13
>>> observed("CCN(C)C(=O)O[C@@H]1CC[C@H](c2cc(NC(=O)Cc3ccno3)n[nH]2)C1")
3.16
>>> observed("CC(CC(F)(F)F)NC(=O)O[C@@H]1CC[C@H](c2cc(NC(=O)Cc3cnco3)n[nH]2)C1 (single isomer, unassigned) [Example 84]")
0.1
